Field: pIC50. Provide a value for each of the molecules that follow.
# target-under-test: GST-hRIPK1 (8-327) (Homo sapiens (Human))
# Sequence (Q13546 8-327): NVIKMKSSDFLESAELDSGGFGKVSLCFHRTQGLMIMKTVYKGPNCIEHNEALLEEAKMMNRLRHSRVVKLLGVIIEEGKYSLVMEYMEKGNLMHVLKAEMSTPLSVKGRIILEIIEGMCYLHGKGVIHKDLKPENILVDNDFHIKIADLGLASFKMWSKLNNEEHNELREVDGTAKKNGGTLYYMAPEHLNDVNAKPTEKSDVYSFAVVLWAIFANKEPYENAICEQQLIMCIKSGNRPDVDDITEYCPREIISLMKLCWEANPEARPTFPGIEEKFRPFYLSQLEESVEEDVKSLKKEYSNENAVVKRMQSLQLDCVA
# method-notes: Fluorescent Polarization Binding (FP Binding) assay, RIPK1
# reported-conditions: GST-hRIPK1 (8-327), mean of at least two independent experiments
pIC50: −log10 of the molar value.

Below: 3 molecules and their reported pIC50.
In [3]: df
Out[3]:
                                   molecule         result
0  [2H]C1([2H])Oc2c(C#N)cncc2CN(C(=O)C(C)(C)C(F)F)C1([2H])[2H]  7.00 to 10.00
1  CC(C)(C(=O)N1CCOc2c(C#N)cncc2C1)[C@H]1C[C@H](Cn2ccnn2)C1         < 6.00
2  CCC(C)(C(=O)N1CCOc2c(C#N)cncc2C1)C(F)F (single isomer, unassigned) [Example 260]  7.00 to 10.00

Data point: `N#Cc1cncc2c1OCCN(C(=O)C1(F)CCN(c3nc(Cl)ncc3F)CC1)C2` ; pIC50 = 7.00 to 10.00

Value source: patent US11203600B2
